pKi: −log10 of the molar value.
Hi, quick share: literature pKi data for UniProt:P08254, several sources combined.
readout: pKi

compound	numeric_result
CNC(=O)[C@H](Cc1ccccc1)N1CC[C@](CC(=O)NO)(CC(C)C)C1=O	5.98
O=C(NO)C(CS(=O)(=O)c1ccccc1)CS(=O)(=O)c1ccccc1	6.80
O=C(CCc1ccccc1)N[C@@H](Cc1c(F)c(F)c(F)c(F)c1F)C(=O)Nc1n[nH]c(=S)s1	6.01
CC(C)C[C@@]1(CC(=O)NO)CCN([C@H](C(=O)Nc2ccccn2)C2CCCCC2)C1=O	7.08
CC(C)C[C@@]1([C@@H](CCN2C(=O)c3ccccc3C2=O)C(=O)NO)CCN(CCCc2ccccc2)C1=O (relative stereo)	6.67
CC(C)C[C@@]1(CC(=O)NO)CCN([C@@H](Cc2ccccc2)C(=O)NC2CCN(Cc3ccccc3)CC2)C1=O	5.74
CNC(=O)[C@@H](NC(=O)[C@H](CC(C)C)[C@](O)(COC(=O)C(C)(C)C)C(=O)NO)C(C)(C)C	7.15
